target: Transcriptional enhancer factor TEF-3 (Homo sapiens); assay: Displacement of bodipy-PA from TEAD4 (unknown origin) measured after 30 mins by FP assay
In this section we review reported K values for a set of compounds.
RECORDED ENDPOINT: K (µM)

ENTRY SMILES: C=CC(=O)Nc1ccccc1Nc1cccc(CCCCCC)c1
SYSTEM NAME: Transcriptional enhancer factor TEF-3 (Homo sapiens)
RECORDED ENDPOINT: K
RESULT COMPARATOR: =
EXPERIMENTAL VALUE: 2.7

ENTRY SMILES: C=CC(=O)Nc1ccccc1Nc1cccc(OCCCCC)c1
SYSTEM NAME: Transcriptional enhancer factor TEF-3 (Homo sapiens)
RECORDED ENDPOINT: K
RESULT COMPARATOR: >
EXPERIMENTAL VALUE: 20

ENTRY SMILES: CCCCCCc1cccc(Nc2ccccc2NC(=O)CCl)c1
SYSTEM NAME: Transcriptional enhancer factor TEF-3 (Homo sapiens)
RECORDED ENDPOINT: K
RESULT COMPARATOR: =
EXPERIMENTAL VALUE: 2.3

ENTRY SMILES: CCCCCOc1cccc(Nc2cccc(NC(C)=O)c2)c1
SYSTEM NAME: Transcriptional enhancer factor TEF-3 (Homo sapiens)
RECORDED ENDPOINT: K
RESULT COMPARATOR: >
EXPERIMENTAL VALUE: 25

ENTRY SMILES: C=CC(=O)Nc1cccc(Nc2cccc(OCCCCC)c2)c1
SYSTEM NAME: Transcriptional enhancer factor TEF-3 (Homo sapiens)
RECORDED ENDPOINT: K
RESULT COMPARATOR: =
EXPERIMENTAL VALUE: 3.6

ENTRY SMILES: CCCCCCc1cccc(Nc2cccc(NC(=O)CCl)c2)c1
SYSTEM NAME: Transcriptional enhancer factor TEF-3 (Homo sapiens)
RECORDED ENDPOINT: K
RESULT COMPARATOR: =
EXPERIMENTAL VALUE: 1

ENTRY SMILES: CCCCCOc1cccc(Nc2cccc(NC(=O)CCl)c2)c1
SYSTEM NAME: Transcriptional enhancer factor TEF-3 (Homo sapiens)
RECORDED ENDPOINT: K
RESULT COMPARATOR: =
EXPERIMENTAL VALUE: 3.1

ENTRY SMILES: C=CC(=O)Nc1cccc(Nc2cccc(CCCCCC)c2)c1
SYSTEM NAME: Transcriptional enhancer factor TEF-3 (Homo sapiens)
RECORDED ENDPOINT: K
RESULT COMPARATOR: =
EXPERIMENTAL VALUE: 1.3

---

tested on: MDA-MB-231; test: Inhibition of TEAD in human MDA-MB-231 cells assessed as reduction in NF2 gene expression level at 10 uM measured after 48 hrs by SYBR green staining based RT-qPCR analysis; format: cell-based
Calls of active or inactive are those of the source. The calls are words filed in the database; no cut-off is given here.
Labels: yes = active, no = inactive

ENTRY SMILES: C=CC(=O)Nc1ccccc1Nc1cccc(CCCCCC)c1
GROUP: yes
--
ENTRY SMILES: C=CC(=O)Nc1ccccc1Nc1cccc(OCCCCC)c1
GROUP: yes
--
ENTRY SMILES: CCCCCCc1cccc(Nc2cccc(NC(=O)CCl)c2)c1
GROUP: no
--
ENTRY SMILES: CCCCCOc1cccc(Nc2cccc(NC(C)=O)c2)c1
GROUP: no
--
ENTRY SMILES: C=CC(=O)Nc1cccc(Nc2cccc(OCCCCC)c2)c1
GROUP: yes
--
ENTRY SMILES: C=CC(=O)Nc1cccc(Nc2cccc(CCCCCC)c2)c1
GROUP: yes
